# Test system: DERL-7 (IL-2 2.5 ng/mL)
# assay-details: percent inhibition of viability; higher = more inhibition
# particulars: 72 h; 10000 nM
Under this convention, 1 (yes) denotes percent inhibition of viability strictly below 80% and 0 (no) denotes percent inhibition of viability at or above 80%.

1. CC[C@H](C)C(=O)O[C@H]1C[C@@H](C)C=C2C=C[C@H](C)[C@H](CC[C@@H]3C[C@@H](O)CC(=O)O3)[C@H]21 [Lovastatin] (max concentration tested 10000 nM) ... 1 (yes)
2. CC[C@H](CC#N)OC(=O)N[C@@H](C)c1cccc(NC(=O)Nc2ccc(-c3cnco3)c(OC)c2)c1 [AVN944] (max concentration tested 10000 nM) ... 0 (no)
3. NS(=O)(=O)OC[C@@H]1C[C@@H](n2ccc3c(N[C@H]4CCc5ccccc54)ncnc32)C[C@@H]1O [Pevonedistat] (max concentration tested 10000 nM) ... 0 (no)
4. O=C(NC[C@H](O)CO)c1ccncc1Nc1ccc(I)cc1F [Pimasertib] (max concentration tested 10000 nM) ... 1 (yes)
5. NC(=O)NO [Hydroxyurea] (max concentration tested 100000 nM) ... 1 (yes)

====

# Test system: KHYG-1 (IL-2 2.5 ng/mL)
# assay-details: percent inhibition of viability; higher = more inhibition
# particulars: 72 h; 1 nM
measured-property: percent inhibition of viability (%)

1) Cn1c(Nc2ccc(C(F)(F)F)cc2)nc2cc(Oc3ccnc(-c4ncc(C(F)(F)F)[nH]4)c3)ccc21 [RAF265] (max concentration tested 1000 nM) ... -6.28
2) CNC(=O)c1ccccc1Sc1ccc2c(/C=C/c3ccccn3)n[nH]c2c1 [Axitinib] (max concentration tested 10000 nM) ... -2.88
3) CC[C@H](CC#N)OC(=O)N[C@@H](C)c1cccc(NC(=O)Nc2ccc(-c3cnco3)c(OC)c2)c1 [AVN944] (max concentration tested 10000 nM) ... -0.31
4) Cc1c(N)nc([C@H](CC(N)=O)NC[C@H](N)C(N)=O)nc1C(=O)N[C@H](C(=O)N[C@H](C)[C@@H](O)[C@H](C)C(=O)N[C@H](C(=O)NCCc1nc(-c2nc(C(=O)NCCC[S+](C)C)cs2)cs1)[C@@H](C)O)[C@@H](OC1OC(CO)C(O)C(O)C1OC1OC(CO)C(O)C(OC(N)=O)C1O)c1cnc[nH]1 (some centres not stated) [Bleomycin] (max concentration tested 10000 nM) ... -3.86
5) CC1(C)NC(=O)N(c2ccc([N+](=O)[O-])c(C(F)(F)F)c2)C1=O [Nilutamide] (max concentration tested 10000 nM) ... 24.8
6) O=C(O)c1ccc(-c2c[nH]c3ncc(-c4ccccc4)cc23)cc1C1CCCC1 (max concentration tested 10000 nM) ... 1.54
7) Nc1nc(Nc2ccc3c(c2)CC[C@@H](N2CCCC2)CC3)nn1-c1cc2c(nn1)-c1ccccc1CCC2 [BGB324] (max concentration tested 10000 nM) ... -2.69
8) O=C(CCCCCCC(=O)Nc1ccc([C@H]2O[C@@H](CSc3nc(-c4ccccc4)c(-c4ccccc4)o3)C[C@@H](c3ccc(CO)cc3)O2)cc1)NO [Tubacin] (max concentration tested 10000 nM) ... -2.84
9) CN(C)CCN1C(=O)c2cccc3cc(N)cc(c23)C1=O [Amonafide] (max concentration tested 10000 nM) ... 6.52
10) Cc1cc(Nc2nc(N[C@@H](C)c3ncc(F)cn3)ncc2Cl)[nH]n1 [AZD1480] (max concentration tested 1000 nM) ... 3.46
11) Cc1cc2c(F)c(Oc3ncnn4cc(OC[C@@H](C)O)c(C)c34)ccc2[nH]1 [Brivanib] (max concentration tested 1000 nM) ... -2.28
12) NC(=S)N/N=C/c1ncccc1N [Triapine] (max concentration tested 10000 nM) ... -1.53
13) NC1(c2ccc(-c3nc4ccn5c(=O)[nH]nc5c4cc3-c3ccccc3)cc2)CCC1 [MK-2206] (max concentration tested 1000 nM) ... 8.2
14) CC(C)n1cnc2c(NCCc3ccc(O)cc3)nc(-c3csc4ccccc34)nc21 [StemRegenin 1] (max concentration tested 10000 nM) ... -5.41
15) CC(C)c1c(C(=O)Nc2ccccc2)c(-c2ccccc2)c(-c2ccc(F)cc2)n1CC[C@@H](O)C[C@@H](O)CC(=O)O [Atorvastatin] (max concentration tested 10000 nM) ... 1.48
16) CS(=O)(=O)N1CCN(Cc2cc3nc(-c4cccc5[nH]ncc45)nc(N4CCOCC4)c3s2)CC1 [Pictilisib] (max concentration tested 10000 nM) ... -3.48
17) Cc1cccc(-c2nn3c(c2-c2ccnc4ccc(C(N)=O)cc24)CCC3)n1 [Galunisertib] (max concentration tested 1000 nM) ... -0.98

====

# System: NK-YS (IL-2 2.5 ng/mL)
# assay-details: drug sensitivity score (DSS) (DSS units); higher = more sensitive; extreme values may be limits of the assay
# particulars: 72 h
measured-property: drug sensitivity score

1. O=c1sn(-c2cccc3ccccc23)c(=O)n1Cc1ccccc1 [Tideglusib] (max concentration tested 3000 nM) ... 0
2. CNC(=O)c1ccccc1Sc1ccc2c(/C=C/c3ccccn3)n[nH]c2c1 [Axitinib] (max concentration tested 10000 nM) ... 9.35
3. CCCc1cc(C)[nH]c(=O)c1CNC(=O)c1cc(-c2ccnc(N3CCN(C)CC3)c2)cc2c1cnn2C(C)C [GSK343] (max concentration tested 10000 nM) ... 6.26

====

Catalogue of compounds with associated percent inhibition of viability
# Test system: NKL (IL-2 2.5 ng/mL)
# assay-details: percent inhibition of viability; higher = more inhibition
# particulars: 72 h; 1 nM
measured-property: percent inhibition of viability (%)

1) CNC(=O)c1ccccc1Sc1ccc2c(/C=C/c3ccccn3)n[nH]c2c1 [Axitinib] (max concentration tested 10000 nM) ... -1.55
2) CO[C@@H](C(=O)N1Cc2[nH]nc(NC(=O)c3ccc(N4CCN(C)CC4)cc3)c2C1)c1ccccc1 [Danusertib] (max concentration tested 10000 nM) ... -10.8
3) CC(C)NC[C@@H](C(=O)N1CCN(c2ncnc3c2[C@H](C)C[C@H]3O)CC1)c1ccc(Cl)cc1 [GDC-0068] (max concentration tested 10000 nM) ... 2.85
4) Nc1ccccc1NC(=O)c1ccc(CNc2nccc(-c3cccnc3)n2)cc1 [Mocetinostat] (max concentration tested 10000 nM) ... -8.5
5) CCN(CC)CCOc1ccc(C(=C(Cl)c2ccccc2)c2ccccc2)cc1 [Clomifene] (max concentration tested 10000 nM) ... 9.73
6) O=C1NC(=O)[C@@H](c2cn3c4c(cccc24)CCC3)[C@@H]1c1c[nH]c2ccccc12 [Tivantinib] (max concentration tested 1000 nM) ... -13.1
7) Cc1ccc(-n2nc(C(C)(C)C)cc2NC(=O)Nc2ccc(OCCN3CCOCC3)c3ccccc23)cc1 [Doramapimod] (max concentration tested 10000 nM) ... -7.33
8) O=P1(NCCCl)OCCCN1CCCl (stereo not drawn) [Ifosfamide] (max concentration tested 10000 nM) ... -15.9
9) Cn1c(=O)n(-c2ccc(C(C)(C)C#N)cc2)c2c3cc(-c4cnc5ccccc5c4)ccc3ncc21 [Dactolisib] (max concentration tested 1000 nM) ... -9.35
10) CC[C@H](C)C(=O)O[C@H]1C[C@@H](C)C=C2C=C[C@H](C)[C@H](CC[C@@H]3C[C@@H](O)CC(=O)O3)[C@H]21 [Lovastatin] (max concentration tested 10000 nM) ... -8.92
11) Cc1cc2c(F)c(Oc3ncnn4cc(OC[C@@H](C)O)c(C)c34)ccc2[nH]1 [Brivanib] (max concentration tested 1000 nM) ... -9.83
12) C[C@@H](C(=O)O)c1ccc(-c2ccccc2)c(F)c1 [Tarenflurbil] (max concentration tested 10000 nM) ... -0.03
13) Cc1ccc(C(=O)Nc2ccc(CN3CCN(C)CC3)c(C(F)(F)F)c2)cc1C#Cc1cnc2cccnn12 [Ponatinib] (max concentration tested 1000 nM) ... -11.6
14) COc1nc(N)nc2c1ncn2[C@@H]1O[C@H](CO)[C@@H](O)[C@@H]1O [Nelarabine] (max concentration tested 10000 nM) ... 5.77
15) C=CCn1c(=O)c2cnc(Nc3ccc(N4CCN(C)CC4)cc3)nc2n1-c1cccc(C(C)(C)O)n1 [MK1775] (max concentration tested 10000 nM) ... -16
16) C=CCN(/C=C1/C(=O)O[C@H](COC)[C@@]2(C)C1=C(O)C(=O)C1=C2[C@H](OC(C)=O)C[C@]2(C)C(=O)CC[C@@H]12)CC=C [Sonolisib] (max concentration tested 10000 nM) ... -7.87
17) N#CC1(c2ccc(NC(=O)c3cccnc3NCc3ccncc3)cc2)CCCC1 [Apatinib] (max concentration tested 10000 nM) ... -16.2
18) CNC(=O)c1ccc2cc([C@@]3(O)CCn4cncc43)ccc2c1 [Orteronel] (max concentration tested 10000 nM) ... -5
19) CC(C)Oc1cc(Nc2nc(N[C@@H](C)c3ccc(F)cn3)ncc2Cl)n[nH]1 [AZ-23] (max concentration tested 1000 nM) ... -8.13
20) COC(=O)N[C@@H](C)CNc1nccc(-c2cn(C(C)C)nc2-c2cc(Cl)cc(NS(C)(=O)=O)c2F)n1 [Encorafenib] (max concentration tested 1000 nM) ... -1.53
21) Nc1nc(Cl)nc2c1ncn2[C@@H]1O[C@H](CO)[C@@H](O)[C@@H]1F [Clofarabine] (max concentration tested 10000 nM) ... -14.3
22) CC(C)(C)NC(=O)[C@H]1CC[C@H]2[C@@H]3CC[C@H]4NC(=O)C=C[C@]4(C)[C@H]3CC[C@]12C [Finasteride] (max concentration tested 10000 nM) ... 5.94
23) CS(=O)(=O)N1CCN(Cc2cc3nc(-c4cccc5[nH]ncc45)nc(N4CCOCC4)c3s2)CC1 [Pictilisib] (max concentration tested 10000 nM) ... -16
